Source of measurements: patent US7932283B2

Reported chromatographic logP values for a set of compounds
Experiment: logP by HPLC on reversed-phase column (C 18), EEC Directive 79/B31 Annex V.A8, methods A and B
Assay type: physicochemical
Settings: reversed-phase HPLC column (C 18), HPLC reversed-phase C 18, method A: 43° C., 0.1% aqueous phosphoric acid, acetonitrile, linear gradient 10% to 90% acetonitrile
OBSERVED_PROPERTY: chromatographic logP

> print(dat)
                                  mol.smiles     observed.property  reported
 1  Cc1nn(C)c(F)c1C(=O)N(C1CC1)S(=O)(=O)c1ccc(O)c(O)c1O  chromatographic logP      3.35
 2  Cc1c(C(=O)N(C2CC2)S(=O)(=O)c2ccccc2O)cnn1-c1ccccc1  chromatographic logP      2.97
 3  Cc1nn(C)c(F)c1C(=O)N(C1CC1)S(=O)(=O)c1ccccc1[N+](=O)[O-]  chromatographic logP      2.25
 4  Cc1nn(C)c(F)c1C(=O)N(C1CC1)S(=O)(=O)c1ccc(C(F)(F)F)cc1O  chromatographic logP      3.19
 5  Cc1nn(C)c(F)c1C(=O)N(C1CC1)S(=O)(=O)c1ccc([N+](=O)[O-])cc1  chromatographic logP      2.54
 6  Cc1nn(C)c(F)c1C(=O)N(C1CC1)S(=O)(=O)c1ccccc1F  chromatographic logP      2.25
 7  Cc1ncc(C(=O)N(C2CC2)S(=O)(=O)c2cccc(O)c2)s1  chromatographic logP       2.8
 8  Cc1nn(C)c(F)c1C(=O)N(C1CC1)S(=O)(=O)c1ccc(-c2ccccc2)cc1  chromatographic logP      3.39
 9  Cc1nc(C(F)(F)F)c(C(=O)N(C2CC2)S(=O)(=O)c2ccccc2O)s1  chromatographic logP       3.2
10  Cc1cc(C)c(S(=O)(=O)N(C(=O)c2c(C)nn(C)c2F)C2CC2)c(C)c1  chromatographic logP      3.05
11  Cc1ncc(C(=O)N(C2CC2)S(=O)(=O)c2ccc(O)c(C(F)(F)F)c2)s1  chromatographic logP      3.46
12  Cc1nn(C)c(O)c1C(=O)N(C1CC1)S(=O)(=O)c1ccccc1O  chromatographic logP      2.58
13  Cc1nn(C)c(F)c1C(=O)N(C1CC1)S(=O)(=O)c1ccc(O)c(O)c1  chromatographic logP      3.35
14  CCOC(=O)c1[nH]c(C)c(C(=O)N(C2CC2)S(=O)(=O)c2ccc(C(F)(F)F)cc2)c1C  chromatographic logP      3.72
15  COc1ccc(S(=O)(=O)N(C(=O)c2c(C)nn(C)c2F)C2CC2)cc1  chromatographic logP      2.35
16  Cc1nn(C)c(F)c1C(=O)N(C1CC1)S(=O)(=O)c1ccc(C(F)(F)F)cc1  chromatographic logP       3.1
17  Cc1nn(C)c(F)c1C(=O)N(C1CC1)S(=O)(=O)c1ccccc1C#N  chromatographic logP      2.07
18   Cc1occc1C(=O)N(C1CC1)S(=O)(=O)c1ccccc1O  chromatographic logP      2.77
19  Cc1ccc(S(=O)(=O)N(C(=O)c2c(C)nn(C)c2F)C2CC2)cc1  chromatographic logP      2.59
20  Cc1nn(C)c(F)c1C(=O)N(C1CC1)S(=O)(=O)c1cc(O)ccc1O  chromatographic logP      2.91
21  Cc1ncc(C(=O)N(C2CC2)S(=O)(=O)c2ccc(C(F)(F)F)cc2)s1  chromatographic logP       3.1
22  Cc1nn(C)c(F)c1C(=O)N(C1CC1)S(=O)(=O)c1c(F)cccc1F  chromatographic logP      2.25
23  Cc1nn(C)c(F)c1C(=O)N(C1CC1)S(=O)(=O)c1cc(O)cc(O)c1  chromatographic logP      3.48
24  Cc1nn(C)c(F)c1C(=O)N(C1CC1)S(=O)(=O)c1cccc(O)c1O  chromatographic logP      2.77
25  Cc1nn(C)c(F)c1C(=O)N(C1CC1)S(=O)(=O)c1ccccc1Br  chromatographic logP      2.37
26  Cc1ccc(C)c(S(=O)(=O)N(C(=O)c2c(C)nn(C)c2F)C2CC2)c1  chromatographic logP      2.78
